# Tested on: MDA-MB-435
# PROTOCOL TEXT: NCI tumour cell line growth inhibition, 48 h
Active and inactive are the calls of the source. Rule as the data show it: active = GI50 up to about 1.1 µM and inactive = higher.
ASSAY READOUT: GI50

Hey, quick one: what's GI50 for each of these?
1. COc1cc2c(cc1C)NC(=O)/C2=C/c1cccnc1
2. CC(C)(C)OC(=O)N1C[C@H](CC(=O)OCc2ccccc2)C[C@H]1C(=O)OCC(Cl)(Cl)Cl

12.9 µM (inactive)
5.31 µM (inactive)

###

# Test system: SK-MEL-28
# PROTOCOL TEXT: NCI tumour cell line growth inhibition, 48 h
Active and inactive are the calls of the source. No stated cut-off is given here; in the data, active = GI50 up to about 1.1 µM and inactive = higher.
A correct response names exactly one class from yes (active), no (inactive)

// outcome(item) with item = N#CC(C(=O)c1cccnc1Cl)c1nc2cc(C(F)(F)F)ccc2s1 (stereo not drawn)
no

// outcome(item) with item = Cc1ccccc1OC(C)C(=O)NN1C(=O)CC(=O)NC1=S (stereo not drawn)
no

// outcome(item) with item = CC(=O)Nc1ccc2c3c(cc(O)c2c1)N(C(=O)CCCCC(=O)N1CC(CCl)c2c1cc(O)c1cc(NC(C)=O)ccc21)CC3CCl (stereo not drawn)
yes

// outcome(item) with item = COc1cc(O)c2c(O)c3c(=O)oc(C)cc3c(OC)c2c1 [PAEPALANTINE]
no

// outcome(item) with item = CC12Oc3ccc4ccccc4c3CC1Cc1c(ccc3ccccc13)O2 (stereo not drawn)
no

// outcome(item) with item = COC(=O)CCCCCOS(=O)(=O)c1ccc(C)cc1
no

// outcome(item) with item = COc1cc2cc[n+]3c(C)c4cc(OC)c(OC)cc4c([O-])c3c2cc1OC
no

// outcome(item) with item = CCOP(=O)(OCC)/C(=C\N1C(=O)CC(=O)NC1=S)C(=O)OC
no

Further cases:
// outcome(item) with item = Cc1ccc(OCCn2cc(Nc3ccccc3)c(=O)[nH]c2=O)cc1
no

// outcome(item) with item = O=C(O)Cc1ccc(Oc2nc3ccccc3nc2-c2ccccc2)cc1
no
